Data credit: the supplement of paper PMC10126150

- System: ATP;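 further: ATP exposure 15 min at 22 °C before imaging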
- procedure.summary: switch fluorescence ratio, 500 uM ATP over buffer (Cy3 cluster intensity, sum of 5 cycles each) (fold (ratio)); higher = stronger signal-on switching upon ATP binding; sequences stand for … in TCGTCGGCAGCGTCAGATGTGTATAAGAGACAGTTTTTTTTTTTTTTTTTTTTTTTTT…TC
- settings: aptamer strand: ATP DNA aptamer (quencher-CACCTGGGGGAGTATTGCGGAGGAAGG + anchor), 100 nM annealed; ATP concentration: 500 uM
quantity.measured: switch fluorescence ratio
Numbers only.

Recorded results for 6 sequences are shown here.
• GGTTCAGCTT = 0.981
• TTAGGATCGC = 1.02
• CAAGATGCTC = 1.43
• CCTTGTAGGT = 1.02
• ATTAGTTGTG = 0.976
• ACTGGTGGCA = 1.04

Kindly give each listed record's switch fluorescence ratio.
1. GCATATCTAG
2. GGGGGCTTAG
3. TAGTAATTGA
4. GCTTGTCGGC
5. TAACATGGCC
6. ATTTTGGCAG

-- reply
1. 1.03
2. 0.988
3. 1
4. 0.99
5. 1
6. 0.99

Kindly give each listed record's switch fluorescence ratio.
1. TATGGTCATT
2. CATTCAGGGG

-- reply
1: 0.99; 2: 1.2
